Assign IC50 to each entry below.
System: HL-1 cardiomyocytes, H2O2 injury, ATP luminescence, 2 h
procedure-summary: H2O2-induced HL-1 cell death suppression – ATP luminescence, dose response (AID 602215);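 also: potency is for protection so actives raise ATP signal against peroxide damage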
Activity calls are given as the source filed them.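 The calls were made as follows: active = IC50 of 20 µM or lower; inactive = the rest.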

Entry under test: COc1ccc(C(=O)Nc2cccc(/C(C)=N/NC(=O)c3ccc([N+](=O)[O-])c(C)c3)c2)cc1OC . Its IC50 was > 79 µM (inactive)

Sure, the documented IC50 for Cc1cccc(NC(=O)c2oc3ccc(S(=O)(=O)N4CCOCC4)cc3c2C)c1C is 4.13 µM

Briefly, IC50 measured for O=C(Nc1ccccc1)c1nc[nH]c1C(=O)NCCCCNC(=O)c1[nH]cnc1C(=O)Nc1ccccc1 : 39.6 µM (inactive)

Notebook: O=C(COC(=O)c1c2c(nc3ccccc13)/C(=C/c1cccc([N+](=O)[O-])c1)CCC2)NC1CCS(=O)(=O)C1 (stereo not drawn) , IC50 read as > 79 µM (inactive)

Summary for this compound, CCOc1cc(-c2cc(-c3ccc(N)cc3)nc(N)c2C#N)ccc1O : IC50 is > 79 µM (inactive)

Notebook: COc1cc(-c2cc(NC(C)=O)c3ncc(-c4ccc(C(C)=O)cc4)n3c2)cc(OC)c1OC , IC50 read as > 79 µM (inactive)

Consider COc1ccc(-c2cc(NC(C)=O)c3ncc(-c4cccc(C(C)=O)c4)n3c2)cc1OC . Its measured IC50 is > 79 µM (inactive)

Reported IC50 ( C[C@@H]1CN([C@@H](C)CO)C(=O)c2cc(NC(=O)Nc3ccccc3)ccc2O[C@H]1CN(C)C(=O)Nc1cccc2ccccc12 ) = > 79 µM (inactive)

What the record says about CC(C)(C)NC(=O)c1cc(NC(=O)c2cccs2)cc(NC(=O)c2cccs2)c1 : IC50 is > 79 µM (inactive)

So, COc1ccc(COc2cc(-c3cccc(OC)c3)nc3ccc(NC(=O)c4cccnc4)cc23)cc1 ? Its IC50 was 4.53 µM

// field: IC50; key: CN(C(=O)c1sc2nc(N3CCOCC3)c3c(c2c1N)CCCC3)c1ccccc1 ; value = 8.63 µM

Consider Cc1ccc(C=NNc2nc3c([nH]2)c(=O)n(C)c(=O)n3C)cc1 . Its measured IC50 is > 79 µM (inactive)

Noted for COc1ccc(-c2ccc3c(c2)S(=O)(=O)c2cccc(C(=O)NC[C@@H]4CCCO4)c2C3=O)cc1OC : its IC50 reads > 79 µM (inactive)

According to the records, this compound CCOC(=O)c1ccc(NC(=O)c2nc[nH]c2C(=O)NCCCCCNC(=O)OC(C)(C)C)cc1 displays IC50 of > 79 µM (inactive)

Briefly, IC50 measured for COc1cc(NC(=O)c2cc3nc(-c4ccccc4)cc(-c4ccccc4)n3n2)cc(OC)c1OC : 8.71 µM

Entry under test: O=C(COC(=O)c1ccccc1C(=O)OCC(=O)NCCc1c[nH]c2ccccc12)NCCc1c[nH]c2ccccc12 . Its IC50 was > 79 µM (inactive)

Entry NC(=O)c1cc2ccccc2o/c1=N\NC(=O)c1ccc(F)cc1 — recorded IC50 = 3.33 µM

IC50 measured on COCCCN(Cc1ccco1)C(=O)Cn1ncc2c([nH]c3ccccc32)c1=O = > 79 µM (inactive)

====

Tested on: HL-1 cardiomyocytes, H2O2 injury, ATP luminescence, 2 h
procedure-summary: H2O2-induced HL-1 cell death suppression – ATP luminescence, dose response (AID 602215);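 also: potency is for protection so actives raise ATP signal against peroxide damage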
Calls of active or inactive are those of the source.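 The calls were made as follows: active = IC50 of 20 µM or lower; inactive = the rest.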
Mark one answer only. Choices: active, inactive

Req: Look up the recorded call for COc1ccc(-c2csc(NC(=O)CCCc3nc4ccccc4c(=O)[nH]3)n2)cc1OC in this test.
Resp: active

Req: Tell me the recorded outcome of this test for CC(OC(=O)c1cc(-c2cccnc2)nc2ccccc12)C(=O)Nc1ccc2ccccc2c1 (stereo not given) .
Resp: inactive

Req: Hey, what did the test say about Cc1[nH]c2ccccc2c1/C=N/NC(=O)c1cc(-c2ccccc2)n[nH]1 ?
Resp: inactive

Req: Hi team, can someone confirm the assay call for CCOc1ncccc1C(=O)Nc1cccc(-c2nc3cccnc3s2)c1 ?
Resp: inactive

Req: What is the recorded call for this compound in the test? CCCn1nc(C(=O)Nc2nc(-c3ccccn3)cs2)c2ccccc2c1=O
Resp: active

Req: Recorded call for COc1cccc(-c2cnc3c(NC(C)=O)cc(-c4cccc(NS(C)(=O)=O)c4)cn23)c1 ?
Resp: active

Req: Tell me the assay call for COc1nc(N/N=C/c2cc3c(cc2Br)OCO3)nc(N2CCOCC2)n1 please.
Resp: inactive

Req: How was COc1cc(/C=C(\C#N)c2nc3ccc(C)cc3[nH]2)c([N+](=O)[O-])cc1OC classified in this test?
Resp: inactive

Req: Write down the call the test reported for this compound. Item: COc1cc(C(=O)N/N=C/c2ccc(OC(=O)c3cccc(C)c3)c(OC)c2)ccc1O
Resp: inactive

Req: Hey, what did the test say about COc1ccccc1N1CCN(C(=O)c2ccc3nc(-c4ccco4)c(-c4ccco4)nc3c2)CC1 ?
Resp: inactive

Req: For COc1cc(-c2cc(C(=O)Nc3ccccc3N3CCOCC3)c3ccccc3n2)cc(OC)c1OC , what call appears in the results of this test?
Resp: active

Req: Each compound tested received a call. Report the one for NC(=O)c1nsc(C(=O)N(c2ccccc2)C(C(=O)NC2CCCC2)c2ccc3ncccc3c2)c1N (stereo not given) .
Resp: active

Req: # lookup: test call for O=C(Nc1cccc(NC(=O)c2ccc([N+](=O)[O-])o2)c1)c1ccco1
Resp: inactive

Req: Which outcome was entered for the compound COc1ccc(-c2ccc3c(c2)S(=O)(=O)c2cccc(C(=O)N4CCN(c5c(Cl)cncc5Cl)CC4)c2C3=O)cc1OC in this test?
Resp: inactive

Req: How did this test come out for CCOc1cc(/C=C/c2ccc3cccc([N+](=O)[O-])c3n2)ccc1OCC(=O)N(C)C ?
Resp: inactive

Req: # outcome recorded in this test, key = COc1ccccc1NC(=O)c1cc(-c2cc(OC)c(OC)c(OC)c2)nc2ccccc12
Resp: active

Req: Kindly provide the recorded test outcome for the following compound: CCOc1ccc(-n2cc(-c3ccccc3)c3c(N4CCOCC4)ncnc32)cc1
Resp: inactive

Req: Tell me the assay call for COc1cc(C(=O)NCC(=O)N/N=C/c2ccc(-c3cccc([N+](=O)[O-])c3)o2)cc(OC)c1OC please.
Resp: active

Req: Field: outcome | Entry: O=C(Nc1ccccc1)c1nc[nH]c1C(=O)NCCNC(=O)c1[nH]cnc1C(=O)Nc1ccccc1
Resp: inactive

Req: I would be grateful if you could indicate the recorded call for O=C1OCCN1C(=O)[C@H]1[C@H](c2ccc([N+](=O)[O-])cc2)C(c2ccc(F)cc2)=NN1c1ccc(Br)cc1 .
Resp: inactive

Req: Outcome? CC(C)OCCCNC(=O)CCC(=O)NNc1nc2ccccc2c2nc(-c3ccccc3)nn12
Resp: inactive

Req: What outcome does the record of this test show for CCc1nc2ccc(C(=O)Nc3cc(-c4ccccc4)ccc3OC)cn2c1N(C)Cc1nccs1 ?
Resp: inactive

Req: Identify the outcome logged in this assay for the compound shown: c1ccc(-c2nc(-n3ccnc3)nc(-n3ccnc3)n2)cc1
Resp: inactive

Req: Status in this test for NC(=O)c1nsc(C(=O)N(c2ccccc2)C(C(=O)NCc2ccc(F)cc2)c2ccc(O)cc2)c1N (stereo not given) ?
Resp: inactive

Req: Given CC(=O)Nc1cccc(-c2cc(NC=O)c3ncc(-c4ccc(C(C)=O)cc4)n3c2)c1 , state the outcome it received in this test.
Resp: active

Req: Please let me know the test result on file for COc1ccc(CCNc2nc(-c3cccnc3)nc3ccccc23)cc1OC .
Resp: inactive

Req: // param item: CCN(CC(=O)Nc1ccc(OC)cc1)C(=O)c1cc(-c2cccs2)nn1-c1ccccc1 ; yields the recorded call
Resp: inactive

Req: Short answer needed: outcome of this test for Cc1nn(-c2ccccc2)c(N2CCCC2)c1/C=N/NC(=O)c1cc(-c2ccccn2)nc2ccccc12 ?
Resp: inactive

Req: Would you mind telling me which call this test gave O=C(c1cc(=O)[nH]c2ccccc12)N1CCN(S(=O)(=O)c2ccc(Cl)cc2)CC1 ?
Resp: inactive

Req: Tell me the recorded outcome of this test for COc1ccc(Nc2nnc(SCc3cc(=O)n4ccsc4n3)s2)cc1 .
Resp: inactive

Req: Call for entry COC(=O)c1[nH]c2ccccc2c1NC(=O)CNC1CCCCC1 :
Resp: inactive

Req: What outcome does the record of this test show for COc1ccc(-c2cc3nc(-c4ccccc4)cc(N4CCN(C(C)=O)CC4)n3n2)cc1 ?
Resp: active

Req: Recorded call for CCOc1ccc(C(C(=O)NC2CCCC2)N(C(=O)c2snc(C(N)=O)c2N)c2cccc(O)c2)cc1 (stereo not given) ?
Resp: active

Req: Test call, this compound: C=CCOC(=O)C1=C[C@H](c2cn(C(C)=O)c3ccccc23)C[C@H](OCc2ccc(CO)cc2)O1
Resp: inactive

Req: Tell me the recorded outcome of this test for COc1cc(/C=N/NC(=O)c2ccccc2)ccc1OS(=O)(=O)c1ccccc1 .
Resp: inactive
